Measured values drawn from patent US7396837B2 for this set.

The following molecules are listed with their measured IC (TGI) values.
System: LoVo
Assay: SRB colorimetric cell growth inhibition assay, LoVo
Type: cell-based
Settings: Homo sapiens, LoVo; total growth inhibition (cytostatic effect); read-out: TGI LOVO
quantity: IC (TGI) (µM)

>>> observed_measurement("COc1cc(-c2c3n(c4c(=O)oc5cc(OC(=O)[C@@H](N)Cc6ccccc6)c(OC)cc5c24)CCc2cc(OC(=O)[C@@H](N)Cc4ccccc4)c(OC)cc2-3)ccc1OC(=O)[C@@H](N)Cc1ccccc1 [Compound 115]")
1.82
>>> observed_measurement("COc1cc(-c2c3n(c4c(=O)oc5cc(O)c(OC)cc5c24)CCc2cc(O)c(OC)cc2-3)ccc1O [Compound 109]")
4.07
>>> observed_measurement("COc1cc(-c2c3c4cc(OC)c(OC(=O)[C@@H](N)CO)cc4oc(=O)c3n3ccc4c(OC(=O)[C@@H](N)CO)c(OC)c(OC)cc4c23)ccc1OC(=O)[C@@H](N)CO [Compound 9]")
0.584
>>> observed_measurement("COc1cc(-c2c3c4cc(OC)c(OC(=O)[C@@H]5CCCN5)cc4oc(=O)c3n3ccc4cc(OC(=O)[C@@H]5CCCN5)c(OC)cc4c23)ccc1OC(=O)[C@@H]1CCCN1 [Compound 180]")
2.01
>>> observed_measurement("COc1cc(-c2c3n(c4c(=O)[nH]c5cc(O)c(OC)cc5c24)CCc2cc(O)c(OC)cc2-3)ccc1O [Compound 4]")
1.08

---

The following compounds are listed with their measured CC50 values.
Tested on: A-549
Experiment: SRB colorimetric cell growth inhibition assay, A-549
Assay type: cell-based
Details: Homo sapiens, A549, A-549; cell killing (cytotoxic effect); read-out: LC50 A-549
quantity: CC50 (µM)

>>> observed_measurement("COc1cc2ccn3c(c(-c4ccc(OC(=O)[C@@H](N)Cc5ccccc5)c(OC)c4)c4c5cc(OC)c(OC(=O)[C@@H](N)Cc6ccccc6)cc5oc(=O)c43)c2cc1OC")
9.99
>>> observed_measurement("COc1cc(-c2c3c4cc(OC)c(OC(=O)[C@@H]5CCCN5)cc4oc(=O)c3n3ccc4cc(OC(=O)[C@@H]5CCCN5)c(OC)cc4c23)ccc1OC(=O)[C@@H]1CCCN1")
7.26
>>> observed_measurement("COc1cc(-c2c3n(c4c(=O)oc5cc(OC(=O)c6cc(F)c(F)c(F)c6F)c(OC)cc5c24)CCc2c-3cc(OC)c(OC)c2OC(=O)c2cc(F)c(F)c(F)c2F)ccc1OC(=O)c1cc(F)c(F)c(F)c1F")
9.44
>>> observed_measurement("COc1cc(-c2c3c4cc(OC)c(OC(=O)[C@@H](N)CC(C)C)cc4oc(=O)c3n3ccc4cc(OC(=O)[C@@H](N)CC(C)C)c(OC)cc4c23)ccc1OC(=O)[C@@H](N)CC(C)C")
8.18
>>> observed_measurement("COc1cc(-c2c3c4cc(OC)c(OC(=O)CCc5ccccc5)cc4oc(=O)c3n3ccc4cc(OC(=O)CCc5ccccc5)c(OC)cc4c23)ccc1OC(=O)CCc1ccccc1")
11.2
>>> observed_measurement("COc1cc(-c2c3c4cc(OC)c(OC(=O)[C@@H](N)C(C)C)cc4oc(=O)c3n3ccc4cc(OC(=O)[C@@H](N)C(C)C)c(OC)cc4c23)ccc1OC(=O)[C@@H](N)C(C)C")
11
>>> observed_measurement("COc1cc2c(cc1O)CCn1c-2cc2c3cc(OC)c(O)cc3oc(=O)c21")
26.4
>>> observed_measurement("COc1cc(-c2c3c4cc(OC)c(OC(=O)CCCCCN)cc4oc(=O)c3n3ccc4cc(OC(=O)CCCCCN)c(OC)cc4c23)ccc1OC(=O)CCCCCN")
9.74
>>> observed_measurement("COc1cc2c(cc1O)oc(=O)c1c2c(-c2cccc([N+](=O)[O-])c2)c2c3cc(OC)c(O)cc3ccn21")
20.1
>>> observed_measurement("COc1cc2c(cc1OC)-c1c(-c3ccc(OC(=O)[C@H](C)NC(=O)OC(C)(C)C)c(OC)c3)c3c4cc(OC)c(OC(=O)[C@H](C)NC(=O)OC(C)(C)C)cc4oc(=O)c3n1CC2")
11.7
>>> observed_measurement("COc1cc(-c2c3n(c4c(=O)oc5cc(OC(=O)[C@H](C)NC(=O)[C@H](C)NC(=O)OC(C)(C)C)c(OC)cc5c24)CCc2cc(OC(=O)[C@H](C)NC(=O)[C@H](C)NC(=O)OC(C)(C)C)c(OC)cc2-3)ccc1OC(=O)[C@H](C)NC(=O)[C@H](C)NC(=O)OC(C)(C)C")
8.14
>>> observed_measurement("COc1cc(-c2c3c4cc(OC)c(O)cc4oc(=O)c3n3ccc4cc(OC)c(OC)cc4c23)ccc1O")
19.5
>>> observed_measurement("COc1cc2c(cc1O)oc(=O)c1c2c(-c2ccc(OC)c(OC)c2)c2c3cc(OC)c(O)cc3ccn21")
19.5
>>> observed_measurement("COc1cc(-c2c3c4cc(OC)c(OC(=O)[C@H](C)N)cc4oc(=O)c3n3ccc4cc(OC(=O)[C@H](C)N)c(OC)cc4c23)ccc1OC(=O)[C@H](C)N")
12.2
>>> observed_measurement("COc1cc(-c2c3c4cc(OC)c(OC(=O)[C@H](C)NC(=O)[C@H](C)N)cc4oc(=O)c3n3ccc4c(OC(=O)[C@H](C)NC(=O)[C@H](C)N)c(OC)c(OC)cc4c23)ccc1OC(=O)[C@H](C)NC(=O)[C@H](C)N")
4.65
>>> observed_measurement("COc1cc(-c2c3n(c4c(=O)[nH]c5cc(O)c(OC)cc5c24)CCc2cc(O)c(OC)cc2-3)ccc1O")
10
>>> observed_measurement("COc1cc2ccn3c(c(-c4ccc(OS(=O)(=O)C(F)(F)F)c(OC)c4)c4c5cc(OC)c(OS(=O)(=O)C(F)(F)F)cc5oc(=O)c43)c2cc1OC")
2.25
>>> observed_measurement("CCCCCCCC(=O)Oc1ccc(-c2c3n(c4c(=O)oc5cc(OC(=O)CCCCCCC)c(OC)cc5c24)CCc2cc(OC(=O)CCCCCCC)c(OC)cc2-3)cc1OC")
11.4
>>> observed_measurement("COc1cc(-c2c3c4cc(OC)c(OC(C)C)cc4oc(=O)c3n3ccc4c(OC(C)C)c(OC)c(OC)c(COS(C)(=O)=O)c4c23)ccc1OC(C)C")
13.1
>>> observed_measurement("COc1cc(-c2c3n(c4c(=O)oc5cc(OC(=O)[C@@H]6CCCN6)c(OC)cc5c24)CCc2c-3cc(OC)c(OC)c2OC(=O)[C@@H]2CCCN2)ccc1OC(=O)[C@@H]1CCCN1")
6.99
>>> observed_measurement("COc1cc(-c2c3c4cc(OC)c(OC(=O)CCC5CCCCC5)cc4oc(=O)c3n3ccc4cc(OC(=O)CCC5CCCCC5)c(OC)cc4c23)ccc1OC(=O)CCC1CCCCC1")
10.9
>>> observed_measurement("COc1cc2ccn3c(c(-c4ccc(OC(=O)[C@@H](NC(=O)OC(C)(C)C)C(C)C)c(OC)c4)c4c5cc(OC)c(OC(=O)[C@@H](NC(=O)OC(C)(C)C)C(C)C)cc5oc(=O)c43)c2cc1OC")
11

---

System: LoVo
Experiment: SRB colorimetric cell growth inhibition assay, LoVo
Format: cell-based
Settings: Homo sapiens, LoVo; GI=growth inhibition; read-out: GI50 LOVO
quantity: GI50 (nM)

>>> observed_measurement("COc1cc(-c2c3n(c4c(=O)oc5cc(OC(=O)[C@H](C)N)c(OC)cc5c24)CCc2cc(OC(=O)[C@H](C)N)c(OC)cc2-3)ccc1OC(=O)[C@H](C)N [Compound 42]")
463
>>> observed_measurement("COc1cc2c(cc1OC)-c1c(-c3ccc(OS(C)(=O)=O)c(OC)c3)c3c4cc(OC)c(OS(C)(=O)=O)cc4oc(=O)c3n1CC2 [Compound 92]")
7520
>>> observed_measurement("COc1cc(-c2c3c4cc(OC)c(OC(=O)[C@@H](N)C(C)C)cc4oc(=O)c3n3ccc4c(OC(=O)[C@@H](N)C(C)C)c(OC)c(OC)cc4c23)ccc1OC(=O)[C@@H](N)C(C)C [Compound 35]")
207
>>> observed_measurement("COc1cc(-c2c3c4cc(OC)c(O)cc4oc(=O)c3n3ccc4cc(OC)c(OC)cc4c23)ccc1O [Compound 26]")
1190
>>> observed_measurement("COc1cc(-c2c3c4cc(OC)c(O)cc4oc(=O)c3n3ccc4c(N)cccc4c23)ccc1O [Compound 182]")
21300
>>> observed_measurement("COc1cc(-c2c3n(c4c(=O)oc5cc(OC(=O)[C@H](C)N)c(OC)cc5c24)CCc2c-3cc(OC)c(OC)c2OC(=O)[C@H](C)N)ccc1OC(=O)[C@H](C)N [Compound 96]")
2280
>>> observed_measurement("COc1cc(-c2c3c4cc(OC)c(OC(=O)[C@@H](N)CO)cc4oc(=O)c3n3ccc4c(OC(=O)[C@@H](N)CO)c(OC)c(OC)cc4c23)ccc1OC(=O)[C@@H](N)CO [Compound 9]")
243
>>> observed_measurement("COc1cc(-c2c3n(c4c(=O)oc5cc(OC(=O)[C@@H](N)C(C)C)c(OC)cc5c24)CCc2cc(OC(=O)[C@@H](N)C(C)C)c(OC)cc2-3)ccc1OC(=O)[C@@H](N)C(C)C [Compound 37]")
1790
>>> observed_measurement("COc1cc(-c2c3c4cc(OC)c(OC(=O)[C@H](C)N)cc4oc(=O)c3n3ccc4cc(OC(=O)[C@H](C)N)c(OC)cc4c23)ccc1OC(=O)[C@H](C)N [Compound 199]")
128
>>> observed_measurement("COc1cc(-c2c3c4cc(OC)c(OC(=O)CCCCCN)cc4oc(=O)c3n3ccc4cc(OC(=O)CCCCCN)c(OC)cc4c23)ccc1OC(=O)CCCCCN [Compound 169]")
159
>>> observed_measurement("COc1cc(-c2c3c4cc(OC)c(OC(=O)CCCCCN)cc4oc(=O)c3n3ccc4c(OC(=O)CCCCCN)c(OC)c(OC)cc4c23)ccc1OC(=O)CCCCCN [Compound 193]")
350
